target-system: von Hippel-Lindau disease tumor suppressor/SWI/SNF-related matrix-associated actin-dependent regulator of chromatin subfamily A member 2 (Homo sapiens, UniProt P51531+P40337)
Sequence (P51531 whole entry): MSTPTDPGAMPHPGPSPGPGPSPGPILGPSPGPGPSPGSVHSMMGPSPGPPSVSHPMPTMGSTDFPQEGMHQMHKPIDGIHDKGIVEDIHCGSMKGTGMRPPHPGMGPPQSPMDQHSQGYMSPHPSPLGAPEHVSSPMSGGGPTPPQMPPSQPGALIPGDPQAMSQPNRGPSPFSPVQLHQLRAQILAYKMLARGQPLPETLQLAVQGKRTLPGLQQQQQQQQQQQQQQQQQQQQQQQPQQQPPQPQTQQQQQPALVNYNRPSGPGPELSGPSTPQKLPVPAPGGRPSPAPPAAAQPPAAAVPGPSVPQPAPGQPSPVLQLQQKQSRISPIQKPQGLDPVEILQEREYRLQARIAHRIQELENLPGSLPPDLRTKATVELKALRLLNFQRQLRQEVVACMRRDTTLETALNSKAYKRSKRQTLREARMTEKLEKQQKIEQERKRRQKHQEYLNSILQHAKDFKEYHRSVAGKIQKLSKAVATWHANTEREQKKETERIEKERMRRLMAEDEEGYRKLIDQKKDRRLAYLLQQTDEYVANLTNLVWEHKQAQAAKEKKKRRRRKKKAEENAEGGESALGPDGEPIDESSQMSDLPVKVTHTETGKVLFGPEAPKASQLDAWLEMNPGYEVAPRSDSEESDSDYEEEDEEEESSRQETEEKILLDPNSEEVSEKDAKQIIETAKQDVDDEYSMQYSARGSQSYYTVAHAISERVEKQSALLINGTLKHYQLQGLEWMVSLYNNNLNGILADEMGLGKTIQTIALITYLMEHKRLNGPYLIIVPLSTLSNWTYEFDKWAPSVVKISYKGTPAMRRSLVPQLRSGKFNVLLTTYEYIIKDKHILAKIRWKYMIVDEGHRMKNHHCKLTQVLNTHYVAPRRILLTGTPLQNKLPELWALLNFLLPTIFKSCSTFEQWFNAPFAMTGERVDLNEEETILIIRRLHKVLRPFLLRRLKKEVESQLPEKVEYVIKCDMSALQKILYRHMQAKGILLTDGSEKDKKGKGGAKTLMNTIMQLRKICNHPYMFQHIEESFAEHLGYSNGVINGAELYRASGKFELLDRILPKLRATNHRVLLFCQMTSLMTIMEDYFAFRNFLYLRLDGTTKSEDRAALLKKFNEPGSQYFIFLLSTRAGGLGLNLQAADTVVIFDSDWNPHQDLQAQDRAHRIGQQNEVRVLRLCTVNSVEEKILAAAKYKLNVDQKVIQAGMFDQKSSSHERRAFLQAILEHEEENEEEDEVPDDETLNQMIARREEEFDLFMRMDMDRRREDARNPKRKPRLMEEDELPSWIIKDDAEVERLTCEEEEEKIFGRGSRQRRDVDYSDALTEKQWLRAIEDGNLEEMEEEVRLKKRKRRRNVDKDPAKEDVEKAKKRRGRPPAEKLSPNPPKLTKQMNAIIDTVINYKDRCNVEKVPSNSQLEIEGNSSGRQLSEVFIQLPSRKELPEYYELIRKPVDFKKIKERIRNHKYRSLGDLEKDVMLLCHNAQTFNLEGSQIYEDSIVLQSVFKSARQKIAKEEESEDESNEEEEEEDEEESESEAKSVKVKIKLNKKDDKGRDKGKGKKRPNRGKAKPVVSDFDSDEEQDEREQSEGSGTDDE
Sequence (P40337 whole entry): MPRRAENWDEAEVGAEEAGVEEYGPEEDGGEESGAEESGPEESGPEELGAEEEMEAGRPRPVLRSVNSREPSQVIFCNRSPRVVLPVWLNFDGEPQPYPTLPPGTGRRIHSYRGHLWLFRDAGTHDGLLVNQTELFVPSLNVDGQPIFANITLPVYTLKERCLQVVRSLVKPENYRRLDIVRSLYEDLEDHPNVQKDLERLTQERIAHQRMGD
assay-remarks: PROTAC activity at VHL/SMARCA2 in human HT-1080 cells assessed as induction of SMARCA2 degradation incubated for 24 hrs by Nano-Glo HiBiT Lytic Detection Assay
Type: cell-based
measure: DC50 (nM)
Provide the reading as a plain figure in nM.

Below, each entry is followed by its recorded DC50 result.
- compound: "Cc1ncsc1-c1ccc([C@H](C)NC(=O)[C@@H]2C[C@@H](O)CN2C(=O)[C@@H](c2cc(OCCCN3CCC(c4ccc5c(c4)C(C)(C)c4nc(=O)c6c(Cl)cccc6n4-5)CC3)no2)C(C)C)cc1"
  DC50 [nM]: 1.4
- compound: "Cc1ncsc1-c1ccc([C@H](C)NC(=O)[C@@H]2C[C@@H](O)CN2C(=O)[C@@H](c2cc(OCC(C)CN3CCC(c4ccc5c(c4)-n4c(nc(=O)c6c(Cl)cccc64)C5(C)C)CC3)no2)C(C)C)cc1 (some centres undefined)"
  DC50 [nM]: 1.7

Prompt: Tell me the measured DC50 of `Cc1ncsc1-c1ccc([C@H](C)NC(=O)[C@@H]2C[C@@H](O)CN2C(=O)[C@@H](c2cc(OCCN3CCC(c4ccc5c(c4)C(C)(C)c4nc(=O)c6c(Cl)cccc6n4-5)CC3)no2)C(C)C)cc1` , please.
Response: 2.1

Prompt: Further, for `Cc1ncsc1-c1ccc([C@H](C)NC(=O)[C@@H]2C[C@@H](O)CN2C(=O)[C@@H](c2cc(OCCCCN3CCC(c4ccc5c(c4)C(C)(C)c4nc(=O)c6c(Cl)cccc6n4-5)CC3)no2)C(C)C)cc1` ?
Response: 1.9
